- MEASURED ON: Discoidin domain-containing receptor 2 (Homo sapiens)
- SETUP CONDITIONS: at 10 µM
READOUT LABEL: residual activity (%)
Express your answer in %, writing the number without its unit.

{"MOL": "Cc1nc2cc3nc(-c4cccs4)cnc3cc2n1C", "residual activity [%]": 93}

For the molecule Cn1cc(/C=C2\C(=O)Nc3ccc(S(N)(=O)=O)cc32)c2ccccc21 , report residual activity.
99

For the molecule CO[C@H]1C[C@@H]2CC[C@@H](C)[C@@](O)(O2)C(=O)C(=O)N2CCCC[C@H]2C(=O)O[C@H]([C@H](C)C[C@@H]2CC[C@@H](O)[C@H](OC)C2)CC(=O)[C@H](C)/C=C(\C)[C@@H](O)[C@@H](OC)C(=O)[C@H](C)C[C@H](C)/C=C/C=C/C=C/1C , report residual activity.
110

For the molecule N#CC(C#N)=C(N)/C(C#N)=C/c1ccc(O)cc1 , report residual activity.
97
